This collection of values is drawn from paper PMC3185582.

- Assay Remarks: in vivo
- Details: dog

Molecule: O=C(NN1C(=O)[C@@H]2[C@@H]3C=C[C@@H]([C@H]4C[C@@H]34)[C@@H]2C1=O)c1ccc(C(F)(F)F)cc1 [ST-246, Tecovirimat]
MTD / mg/kg: 30

* * *

- Assay Remarks: in vivo
- Details: cynomolgus monkey, bioavailability, fasted

Chem Smiles: O=C(NN1C(=O)[C@@H]2[C@@H]3C=C[C@@H]([C@H]4C[C@@H]34)[C@@H]2C1=O)c1ccc(C(F)(F)F)cc1
bioavailability: ~25%

* * *

- Assay Remarks: in vivo
- Details: male, Sprague-Dawley, rat, po, 30 mg/kg

Chem Smiles: O=C(NN1C(=O)[C@@H]2[C@@H]3C=C[C@@H]([C@H]4C[C@@H]34)[C@@H]2C1=O)c1ccc(C(F)(F)F)cc1
bioavailability: 90%

* * *

- Assay Remarks: in vivo
- Details: BALB/c, mouse, 2000 mg/kg

Chem Smiles: O=C(NN1C(=O)[C@@H]2[C@@H]3C=C[C@@H]([C@H]4C[C@@H]34)[C@@H]2C1=O)c1ccc(C(F)(F)F)cc1
NOAEL at 28 days (mg/kg): 2000

* * *

- Assay Remarks: in vivo
- Details: BALB/c, mouse, 2000 mg/kg

Molecule: O=C(NN1C(=O)[C@@H]2[C@@H]3C=C[C@@H]([C@H]4C[C@@H]34)[C@@H]2C1=O)c1ccc(C(F)(F)F)cc1 [ST-246, Tecovirimat]
MTD at 28 days, mg/kg: 2000

* * *

- Assay Remarks: in vivo
- Details: cynomolgus monkey, bioavailability, fed state

Molecule: O=C(NN1C(=O)[C@@H]2[C@@H]3C=C[C@@H]([C@H]4C[C@@H]34)[C@@H]2C1=O)c1ccc(C(F)(F)F)cc1 [ST-246, Tecovirimat]
bioavailability: ~50%

* * *

- Assay Remarks: in vivo
- Details: BALB/c, mouse, 30 mg/kg
Measured Endpoint: bioavailability

Chem Smiles: O=C(NN1C(=O)[C@@H]2[C@@H]3C=C[C@@H]([C@H]4C[C@@H]34)[C@@H]2C1=O)c1ccc(C(F)(F)F)cc1
Measured Endpoint: bioavailability
Reported: ~40%

* * *

- Target Or Test System: CYP1A2 (Homo sapiens)
- Sequence (P05177 whole entry): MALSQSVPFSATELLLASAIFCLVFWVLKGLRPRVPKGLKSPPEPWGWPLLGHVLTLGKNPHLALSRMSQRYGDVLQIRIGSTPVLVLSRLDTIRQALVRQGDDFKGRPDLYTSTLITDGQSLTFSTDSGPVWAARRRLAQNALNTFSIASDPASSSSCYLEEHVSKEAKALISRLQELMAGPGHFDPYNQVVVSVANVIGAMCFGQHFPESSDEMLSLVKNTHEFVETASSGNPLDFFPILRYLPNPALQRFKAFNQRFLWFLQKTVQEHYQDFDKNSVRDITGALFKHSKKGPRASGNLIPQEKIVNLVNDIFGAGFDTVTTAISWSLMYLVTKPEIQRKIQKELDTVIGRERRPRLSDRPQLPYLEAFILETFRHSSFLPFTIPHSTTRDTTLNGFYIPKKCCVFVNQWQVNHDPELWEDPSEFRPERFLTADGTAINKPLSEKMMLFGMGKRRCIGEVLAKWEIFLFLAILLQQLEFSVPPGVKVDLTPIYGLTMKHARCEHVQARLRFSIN
- Assay Remarks: in vitro
Measured Endpoint: inhibition at 300 µM

Compound: O=C(NN1C(=O)[C@@H]2[C@@H]3C=C[C@@H]([C@H]4C[C@@H]34)[C@@H]2C1=O)c1ccc(C(F)(F)F)cc1 [ST-246, Tecovirimat]
Reported: < 50%

* * *

- Target Or Test System: CYP2E1 (Homo sapiens, UniProt P05181)
- Sequence (P05181 whole entry): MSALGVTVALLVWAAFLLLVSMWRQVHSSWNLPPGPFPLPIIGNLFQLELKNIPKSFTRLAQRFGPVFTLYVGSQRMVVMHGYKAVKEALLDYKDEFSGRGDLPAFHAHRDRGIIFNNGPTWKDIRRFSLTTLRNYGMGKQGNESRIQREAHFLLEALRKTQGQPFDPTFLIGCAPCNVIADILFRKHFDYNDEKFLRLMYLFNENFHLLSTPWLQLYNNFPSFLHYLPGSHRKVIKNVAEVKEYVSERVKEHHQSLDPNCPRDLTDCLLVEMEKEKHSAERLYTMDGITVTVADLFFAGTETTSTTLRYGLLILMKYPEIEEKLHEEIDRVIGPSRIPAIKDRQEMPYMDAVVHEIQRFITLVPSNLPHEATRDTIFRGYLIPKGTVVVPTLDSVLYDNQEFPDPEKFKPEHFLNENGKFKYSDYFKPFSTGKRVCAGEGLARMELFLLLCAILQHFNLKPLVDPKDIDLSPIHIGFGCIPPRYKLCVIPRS
- Assay Remarks: in vitro

Chem Smiles: O=C(NN1C(=O)[C@@H]2[C@@H]3C=C[C@@H]([C@H]4C[C@@H]34)[C@@H]2C1=O)c1ccc(C(F)(F)F)cc1
inhibition at 300 µM: < 50%

* * *

- Target Or Test System: UniProtKB P10632
- Sequence (P10632 whole entry): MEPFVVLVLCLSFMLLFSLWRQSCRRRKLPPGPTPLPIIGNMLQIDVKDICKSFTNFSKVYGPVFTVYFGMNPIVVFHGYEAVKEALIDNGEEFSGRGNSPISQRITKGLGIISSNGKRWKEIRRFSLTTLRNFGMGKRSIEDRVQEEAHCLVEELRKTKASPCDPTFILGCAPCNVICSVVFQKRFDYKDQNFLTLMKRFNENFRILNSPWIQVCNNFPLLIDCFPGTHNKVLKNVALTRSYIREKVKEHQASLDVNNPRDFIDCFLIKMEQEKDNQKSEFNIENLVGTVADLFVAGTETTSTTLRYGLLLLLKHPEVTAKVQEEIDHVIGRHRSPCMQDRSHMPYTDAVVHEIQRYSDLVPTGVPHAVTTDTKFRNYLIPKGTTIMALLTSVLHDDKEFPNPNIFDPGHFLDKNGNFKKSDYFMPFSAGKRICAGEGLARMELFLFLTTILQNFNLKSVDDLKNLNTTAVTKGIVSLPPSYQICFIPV
- Assay Remarks: in vitro

Chem Smiles: O=C(NN1C(=O)[C@@H]2[C@@H]3C=C[C@@H]([C@H]4C[C@@H]34)[C@@H]2C1=O)c1ccc(C(F)(F)F)cc1
Target Or Test System: UniProtKB P10632
inhibition at 300 µM: < 50%

* * *

- Target Or Test System: CYP2B6 (Homo sapiens)
- Sequence (P20813 whole entry): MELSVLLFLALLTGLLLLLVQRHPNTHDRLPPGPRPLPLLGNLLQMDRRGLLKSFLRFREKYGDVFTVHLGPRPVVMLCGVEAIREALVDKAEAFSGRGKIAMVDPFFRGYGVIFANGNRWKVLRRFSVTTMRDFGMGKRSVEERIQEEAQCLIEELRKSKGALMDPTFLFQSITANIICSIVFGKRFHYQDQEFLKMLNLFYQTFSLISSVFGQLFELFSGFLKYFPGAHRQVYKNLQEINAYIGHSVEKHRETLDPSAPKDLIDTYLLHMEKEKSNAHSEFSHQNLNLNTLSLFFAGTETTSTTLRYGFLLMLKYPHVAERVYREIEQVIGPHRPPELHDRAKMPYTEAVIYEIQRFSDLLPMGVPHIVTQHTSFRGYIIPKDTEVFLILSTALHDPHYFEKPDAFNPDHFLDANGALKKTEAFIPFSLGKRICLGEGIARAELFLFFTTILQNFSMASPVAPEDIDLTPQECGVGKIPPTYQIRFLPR
- Assay Remarks: in vitro

Chem Smiles: O=C(NN1C(=O)[C@@H]2[C@@H]3C=C[C@@H]([C@H]4C[C@@H]34)[C@@H]2C1=O)c1ccc(C(F)(F)F)cc1
inhibition at 300 µM: < 50%
